MEASUREMENT_TARGET: T1, FOXP1 LZ-FHD (UniProt Q9H334 332-555)
T1 sequence: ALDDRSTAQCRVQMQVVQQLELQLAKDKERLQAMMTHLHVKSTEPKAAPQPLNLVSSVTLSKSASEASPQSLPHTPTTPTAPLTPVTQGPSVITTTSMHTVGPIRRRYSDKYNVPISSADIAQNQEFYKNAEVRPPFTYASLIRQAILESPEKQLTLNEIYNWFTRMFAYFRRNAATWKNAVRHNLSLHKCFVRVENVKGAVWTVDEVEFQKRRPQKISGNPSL
ASSAY_DETAILS: fluorescence anisotropy; FA: 10 mM HEPES pH 7.5, 100 mM NaCl, 0.02% NaN3, 500 nM DNA, temperature not stated; EMSA: 10 mM HEPES pH 7.5, 1 mM MgCl2, 100 mM KCl, 10% glycerol, 0.1 mg/ml BSA, 500 nM DNA, on ice, gel at 4 C
CONDITIONS_USED: protein: recombinant; chain copies: 2; blunt
MEASURED_ATTRIBUTE: Kd (nM)
Express your answer in nM, writing the number without its unit.

Item FOXP2 cognate DNA, ROX-labelled (dsDNA) DNA 1: TTAGGTGTTTACTTTCATAG DNA 2: CTATGAAAGTAAACACCTAA has what recorded Kd? 766

Source listed as paper PMC7789814.
